// data source = ChEMBL document CHEMBL1144049

molecular target: ATP-dependent translocase ABCB1 (Homo sapiens); assay: Inhibition of human Pgp in A2780 cells after 30 mins by Hoechst 33342 assay; assay type: cell-based
Sequence (P08183 whole entry): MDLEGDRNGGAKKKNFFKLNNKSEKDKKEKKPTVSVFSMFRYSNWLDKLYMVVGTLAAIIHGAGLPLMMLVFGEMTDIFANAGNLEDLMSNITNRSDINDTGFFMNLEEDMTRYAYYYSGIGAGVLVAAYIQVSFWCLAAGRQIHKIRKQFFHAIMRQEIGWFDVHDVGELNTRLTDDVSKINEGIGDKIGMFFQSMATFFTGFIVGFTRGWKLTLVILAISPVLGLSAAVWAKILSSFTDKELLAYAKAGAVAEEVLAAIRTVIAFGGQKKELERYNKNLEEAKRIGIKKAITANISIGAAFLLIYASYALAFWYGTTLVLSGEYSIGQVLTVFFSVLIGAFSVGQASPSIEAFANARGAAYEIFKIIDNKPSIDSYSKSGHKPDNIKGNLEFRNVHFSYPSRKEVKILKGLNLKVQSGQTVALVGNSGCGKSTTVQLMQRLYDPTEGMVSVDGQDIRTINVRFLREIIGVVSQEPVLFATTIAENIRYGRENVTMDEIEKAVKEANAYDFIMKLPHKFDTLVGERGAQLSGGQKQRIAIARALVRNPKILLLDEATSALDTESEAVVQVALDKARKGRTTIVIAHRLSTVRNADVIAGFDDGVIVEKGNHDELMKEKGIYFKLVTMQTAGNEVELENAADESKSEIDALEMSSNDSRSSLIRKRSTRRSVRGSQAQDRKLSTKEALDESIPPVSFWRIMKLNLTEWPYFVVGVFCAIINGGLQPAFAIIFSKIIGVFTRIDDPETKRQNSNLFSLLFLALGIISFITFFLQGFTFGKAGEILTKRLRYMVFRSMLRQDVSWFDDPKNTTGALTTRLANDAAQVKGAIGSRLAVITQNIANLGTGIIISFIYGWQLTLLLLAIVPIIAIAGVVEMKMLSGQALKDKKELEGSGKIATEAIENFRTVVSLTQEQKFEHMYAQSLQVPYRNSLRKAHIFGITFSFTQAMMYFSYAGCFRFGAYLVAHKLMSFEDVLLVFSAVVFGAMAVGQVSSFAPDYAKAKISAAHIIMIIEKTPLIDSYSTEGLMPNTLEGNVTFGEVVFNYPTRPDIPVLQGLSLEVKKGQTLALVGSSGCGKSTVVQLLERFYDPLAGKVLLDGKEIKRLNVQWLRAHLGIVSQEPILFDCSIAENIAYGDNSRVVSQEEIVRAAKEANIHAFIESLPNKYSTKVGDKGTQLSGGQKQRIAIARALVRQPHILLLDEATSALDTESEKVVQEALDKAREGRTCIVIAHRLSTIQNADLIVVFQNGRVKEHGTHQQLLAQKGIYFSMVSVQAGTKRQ
Each entry below carries its reported IC50.
Property label: IC50 (µM)

INSERT INTO measurements (smiles_repr, observed) VALUES
  ('O=C(Nc1ccc(CCN2CCc3ccccc3C2)cc1)c1ccc([N+](=O)[O-])cc1', 5.01),
  ('COc1cc2c(cc1OC)CN(CCc1ccc(NC(=O)c3ccccc3N)cc1)CC2', 11.2),
  ('COc1cc2c(cc1OC)CN(CCc1ccc(NC(=O)c3cccc(Br)c3)cc1)CC2', 3.24),
  ('COc1cc2c(cc1OC)CN(CCc1ccc(NC(=O)c3ccc(N)cc3)cc1)CC2', 7.08),
  ('COc1cc2c(cc1OC)CN(CCc1ccc(NC(=O)c3ccccc3[N+](=O)[O-])cc1)CC2', 5.5),
  ('COc1cc2c(cc1OC)CN(CCc1ccc(NC(=O)c3ccc4ccccc4c3)cc1)CC2', 0.776),
  ('COc1cc2c(cc1OC)CN(CCc1ccc(NC(=O)c3cnc4ccccc4n3)cc1)CC2', 0.209),
  ('Nc1ccc(C(=O)Nc2ccc(CCN3CCc4ccccc4C3)cc2)cc1', 4.17),
  ('COc1cc2c(cc1OC)CN(CCc1ccc(NC(=O)c3cccnc3)cc1)CC2', 3.16),
  ('COc1cc2c(cc1OC)CN(CCc1ccc(NC(=O)c3cnc4ccccc4c3)cc1)CC2', 0.145);

###

target: ATP-dependent translocase ABCB1 (Mus musculus); test: Inhibition of mouse Pgp in EMT6/AR1.0 cells after 1 hr by daunorubicin accumulation assay
Sequence (P06795 whole entry): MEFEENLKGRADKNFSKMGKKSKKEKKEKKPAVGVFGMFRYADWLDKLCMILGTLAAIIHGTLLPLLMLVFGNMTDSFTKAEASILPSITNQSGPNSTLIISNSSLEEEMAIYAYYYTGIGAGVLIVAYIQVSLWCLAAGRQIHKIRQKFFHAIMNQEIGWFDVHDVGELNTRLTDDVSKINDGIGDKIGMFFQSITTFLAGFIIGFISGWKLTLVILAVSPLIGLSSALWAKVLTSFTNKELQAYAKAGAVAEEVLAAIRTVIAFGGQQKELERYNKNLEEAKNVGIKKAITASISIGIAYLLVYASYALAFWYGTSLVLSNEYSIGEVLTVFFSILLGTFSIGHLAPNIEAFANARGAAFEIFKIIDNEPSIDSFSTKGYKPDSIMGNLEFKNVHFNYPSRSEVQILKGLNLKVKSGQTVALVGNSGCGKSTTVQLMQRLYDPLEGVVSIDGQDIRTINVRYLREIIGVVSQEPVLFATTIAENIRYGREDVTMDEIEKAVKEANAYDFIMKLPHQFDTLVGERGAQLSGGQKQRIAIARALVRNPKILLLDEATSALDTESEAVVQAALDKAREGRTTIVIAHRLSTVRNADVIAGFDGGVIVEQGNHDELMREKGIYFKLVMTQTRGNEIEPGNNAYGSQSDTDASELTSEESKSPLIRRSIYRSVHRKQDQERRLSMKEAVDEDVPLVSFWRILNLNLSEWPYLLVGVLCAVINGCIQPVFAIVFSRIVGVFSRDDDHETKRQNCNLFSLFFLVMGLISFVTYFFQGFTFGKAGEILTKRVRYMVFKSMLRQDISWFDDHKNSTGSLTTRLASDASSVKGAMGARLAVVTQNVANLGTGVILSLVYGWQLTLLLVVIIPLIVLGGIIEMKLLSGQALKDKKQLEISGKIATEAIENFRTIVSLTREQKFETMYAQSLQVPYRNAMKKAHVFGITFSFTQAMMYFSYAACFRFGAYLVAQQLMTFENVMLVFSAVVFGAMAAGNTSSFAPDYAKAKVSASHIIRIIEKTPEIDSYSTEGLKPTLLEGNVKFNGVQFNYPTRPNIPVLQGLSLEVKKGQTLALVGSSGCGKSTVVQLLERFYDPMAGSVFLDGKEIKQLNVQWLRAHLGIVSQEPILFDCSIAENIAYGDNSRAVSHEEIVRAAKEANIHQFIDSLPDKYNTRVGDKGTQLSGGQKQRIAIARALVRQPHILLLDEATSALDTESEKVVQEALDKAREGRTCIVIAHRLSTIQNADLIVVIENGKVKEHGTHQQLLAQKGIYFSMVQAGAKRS
pIC50: −log10 of the molar value.
Each entry below carries its reported pIC50.
Property label: pIC50

INSERT INTO assay_data (smiles_repr, target_or_system, observed) VALUES
  ('COc1cc2c(cc1OC)CN(CCc1ccc(NC(=O)c3ccccc3NC(=O)c3cnc4ccccc4c3)cc1)CC2', 'ATP-dependent translocase ABCB1 (Mus musculus)', 7.30),
  ('O=C(Nc1ccccc1C(=O)Nc1ccc(CCN2CCc3ccccc3C2)cc1)c1cnc2ccccc2c1', 'ATP-dependent translocase ABCB1 (Mus musculus)', 6.49),
  ('COc1cc2c(cc1OC)CN(CCc1ccc(NC(=O)c3ccccc3NC(=O)c3ccc(C)cc3)cc1)CC2', 'ATP-dependent translocase ABCB1 (Mus musculus)', 6.59),
  ('COc1cc2c(cc1OC)CN(CCc1ccc(NC(=O)c3ccccc3NC(=O)c3ccccc3)cc1)CC2', 'ATP-dependent translocase ABCB1 (Mus musculus)', 6.52),
  ('COc1cc2c(cc1OC)CN(CCc1ccc(NC(=O)c3cc(OC)c(OC)cc3NC(=O)c3cnc4ccccc4c3)cc1)CC2', 'ATP-dependent translocase ABCB1 (Mus musculus)', 7.19);

###

Each entry below carries its reported pIC50.
biological target: ATP-dependent translocase ABCB1 (Homo sapiens); assay: Inhibition of human Pgp in A2780 cells after 30 mins by calcein AM assay; assay type: cell-based
pIC50: −log10 of the molar value.
Property label: pIC50

INSERT INTO measurements (smiles_repr, observed) VALUES
  ('O=C(Nc1ccc(CCN2CCc3ccccc3C2)cc1)c1ccc([N+](=O)[O-])cc1', 5.35),
  ('COc1cc2c(cc1OC)CN(CCc1ccc(NC(=O)c3ccccc3NC(=O)c3ccc(C)cc3)cc1)CC2', 6.16),
  ('COc1cc2c(cc1OC)CN(CCc1ccc(NC(=O)c3cccc4ccccc34)cc1)CC2', 5.85),
  ('COc1cc2c(cc1OC)CN(CCc1ccc(NC(=O)c3ccc4ncccc4c3)cc1)CC2', 6.14),
  ('COc1cc2c(cc1OC)CN(CCc1ccc(NC(=O)c3ccccc3N)cc1)CC2', 5.04),
  ('Nc1ccc(C(=O)Nc2ccc(CCN3CCc4ccccc4C3)cc2)cc1', 4.87),
  ('COc1cc2c(cc1OC)CN(CCc1ccc(NC(=O)c3ccnc4ccccc34)cc1)CC2', 5.55);
